# Tested on: ovalbumin-induced systemic edema
# assay_method_text: Ovalbumin-induced systemic edema method
# Format: in vivo
# experimental_setup: rats, 100 mg/kg oral one hour before and with ovalbumin; after 2 hours
# Description: Rats are administered a simultaneous intraperitoneal injection of 1 ml ovalbumin and 0.5 ml of a 1% aqueous Evans Blue solution. The animals of the treated group are additionally orally administered 100 mg/kg of the test derivative, one hour prior to ovalbumin administration and then simultaneously with said ovalbumin administration. […] Thus are determined the mean intensity of the edema and the percent decrease of the edema reaction.
# Percent decrease of the edema reaction After 2 hours annotations
Report the value in % with no unit label.

O=C1NCCc2sccc21 = 51

Data request: Supply recorded Percent decrease of the edema reaction After 2 hours for O=C1c2ccsc2CCN1Cc1ccccc1 here.
Data returned: 42

Data request: Supply recorded Percent decrease of the edema reaction After 2 hours for CC(=O)N1CCc2sccc2C1=O here.
Data returned: 38

Data request: Supply recorded Percent decrease of the edema reaction After 2 hours for COc1cc(COC(=O)C2Cc3sccc3C(=O)N2Cc2cc(OC)c(OC)c(OC)c2)cc(OC)c1OC (stereo not shown) here.
Data returned: 48

Data request: Supply recorded Percent decrease of the edema reaction After 2 hours for CC(=O)N1CCc2ccsc2C1=O here.
Data returned: 45

Data request: Supply recorded Percent decrease of the edema reaction After 2 hours for CC(=O)N1CC(c2ccccc2)c2ccsc2C1=O (stereo not shown) here.
Data returned: 46

Data request: Supply recorded Percent decrease of the edema reaction After 2 hours for O=C1NCCc2ccsc21 here.
Data returned: 53

====

# Test system: mouse
# assay_method_text: Antalgic action, mechanical stimulation method according to Haffner
# Type: in vivo
# experimental_setup: 100 mg/kg oral, after 3 hrs
property_label: mean percent antalgia after 3 hrs (%)
Report the value in % with no unit label.

CC(=O)N1CCc2ccsc2C1=O = 50
O=C1NCCc2ccsc21 = 67
O=C1c2ccsc2CCN1Cc1ccccc1 = 51
CC(=O)N1CC(c2ccccc2)c2ccsc2C1=O (stereo not shown) = 55
CC(=O)N1CCc2sccc2C1=O = 48

Data request: Supply recorded mean percent antalgia after 3 hrs for COc1cc(COC(=O)C2Cc3sccc3C(=O)N2Cc2cc(OC)c(OC)c(OC)c2)cc(OC)c1OC (stereo not shown) here.
Data returned: 56

Data request: Supply recorded mean percent antalgia after 3 hrs for O=C1NCCc2sccc21 here.
Data returned: 64

====

# percent agglomerates formed by 5 RBC annotations
# Test system: Red blood cells
# assay_method_text: Anti-sludge in vitro, "preventive" treatment (protamine sulfate agglomeration of red blood cells)
# Assay type: cell-based, rats
# experimental_setup: 25 μg per tube, controls 6 or 8
Report the value in % with no unit label.

O=C(c1ccccc1Cl)N1CCc2sccc2C1=O = 4
O=C1c2sccc2CCN1Cc1ccccc1Cl = 2
O=C1NCCc2ccsc21 = 1
CC(=O)N1CCc2ccsc2C1=O = 2
CC(=O)N1CC(c2ccccc2)c2ccsc2C1=O (stereo not drawn) = 3

API: the following record is the query input.
Data request: Fill: percent agglomerates formed by 5 RBC (Red blood cells) for this compound O=C1c2ccsc2CCN1Cc1ccc(Cl)cc1
Data returned: 1

====

# System: Red blood cells
# assay_method_text: Anti-sludge in vitro, "preventive" treatment (protamine sulfate agglomeration of red blood cells)
# Type: cell-based, rats
# experimental_setup: 100 μg per tube, controls 13 or 14
property_label: percent agglomerates formed by 3 RBC (%)
Report the value in % with no unit label.

Data request: Fill: percent agglomerates formed by 3 RBC (Red blood cells) for this compound O=C1NCCc2ccsc21
Data returned: 2

Data request: Fill: percent agglomerates formed by 3 RBC (Red blood cells) for this compound CC(=O)N1CC(c2ccccc2)c2ccsc2C1=O (stereo not drawn)
Data returned: 4

Data request: Fill: percent agglomerates formed by 3 RBC (Red blood cells) for this compound O=C(c1ccccc1Cl)N1CCc2sccc2C1=O
Data returned: 3

Data request: Fill: percent agglomerates formed by 3 RBC (Red blood cells) for this compound O=C1c2ccsc2CCN1Cc1ccc(Cl)cc1
Data returned: 6

Data request: Fill: percent agglomerates formed by 3 RBC (Red blood cells) for this compound O=C1c2sccc2CCN1Cc1ccccc1Cl
Data returned: 1

Data request: Fill: percent agglomerates formed by 3 RBC (Red blood cells) for this compound CC(=O)N1CCc2ccsc2C1=O
Data returned: 5

====

# Test system: A.D.P.-induced blood-platelet aggregation
# assay_method_text: A.D.P.-induced blood-platelet aggregation after oral treatment of rats
# Type: in vivo, Wistar rats
# experimental_setup: Rattus norvegicus, 100 mg/kg oral, 3 hrs after treatment, 10 μM A.D.P. solution, read-out: Percent inhibition of blood-platelet aggregation, A.D.P.
property_label: inhibition at 100 mg/kg

Consider the following illustrative entries.
O=C(c1ccccc1Cl)N1CCc2sccc2C1=O = 61.7%
O=C(OCc1ccccc1)C1Cc2sccc2C(=O)N1Cc1ccccc1 (stereo not drawn) = 63.4%
CC(=O)N1CC(c2ccccc2)c2ccsc2C1=O (stereo not drawn) = 61.3%
O=C(O)C1Cc2sccc2C(=O)N1Cc1ccccc1 (stereo not drawn) = 60.5%
O=C1NCCc2sccc21 = 62.3%

API: the following record is the query input.
Data request: Supply recorded inhibition at 100 mg/kg for O=C(c1ccccc1Cl)N1CCc2ccsc2C1=O here.
Data returned: 60.9%

====

# System: mouse
# assay_method_text: Antalgic action, mechanical stimulation method according to Haffner
# Type: in vivo
# experimental_setup: 100 mg/kg oral, after 30 min.
Hi, to clarify the labels: yes (1) covers mean percent antalgia after 30 min. from 70% upward, no (0) covers anything below 70%.

Solved cases (3 shown):
COc1cc(COC(=O)C2Cc3sccc3C(=O)N2Cc2cc(OC)c(OC)c(OC)c2)cc(OC)c1OC (stereo not shown) = yes (1)
O=C1NCCc2ccsc21 = yes (1)
CC(=O)N1CCc2ccsc2C1=O = no (0)

Data request: Textbook exercise: given the entry CC(=O)N1CCc2sccc2C1=O , state whether its mean percent antalgia after 30 min. is greater than or equal to 70%.
Data returned: no (0)

Data request: Textbook exercise: given the entry O=C1NCCc2sccc21 , state whether its mean percent antalgia after 30 min. is greater than or equal to 70%.
Data returned: yes (1)

====

# Tested on: carrageenin-induced edema
# assay_method_text: Localized carrageenin-induced edema method
# Assay type: in vivo
# experimental_setup: rats, 100 mg/kg oral one hour before, with, and 1 and 2.5 hours after carrageenin; after 1 hour
# Percent anti-inflammatory activity after 1 hour annotations
Report the value in % with no unit label.

CC(=O)N1CCc2ccsc2C1=O = 41
O=C1NCCc2sccc21 = 44
COc1cc(COC(=O)C2Cc3sccc3C(=O)N2Cc2cc(OC)c(OC)c(OC)c2)cc(OC)c1OC (stereo not shown) = 40
O=C1NCCc2ccsc21 = 42
CC(=O)N1CCc2sccc2C1=O = 39
CC(=O)N1CC(c2ccccc2)c2ccsc2C1=O (stereo not shown) = 37

API: the following record is the query input.
Data request: Fill: Percent anti-inflammatory activity after 1 hour (carrageenin-induced edema) for this compound O=C1c2ccsc2CCN1Cc1ccccc1
Data returned: 36

====

# System: Red blood cells
# assay_method_text: Anti-sludge in vitro, "preventive" treatment (protamine sulfate agglomeration of red blood cells)
# Assay type: cell-based, rats
# experimental_setup: 50 μg per tube, controls 9 or 8
property_label: percent agglomerates formed by 4 RBC (%)
Report the value in % with no unit label.

Consider the following illustrative entries.
O=C1NCCc2ccsc21 = 2
CC(=O)N1CCc2ccsc2C1=O = 2
O=C1c2sccc2CCN1Cc1ccccc1Cl = 2
CC(=O)N1CC(c2ccccc2)c2ccsc2C1=O (stereo not drawn) = 2
O=C(c1ccccc1Cl)N1CCc2sccc2C1=O = 3

API: the following record is the query input.
Data request: Supply recorded percent agglomerates formed by 4 RBC for O=C1c2ccsc2CCN1Cc1ccc(Cl)cc1 here.
Data returned: 2

====

# percent agglomerates formed by 2 RBC annotations
# Tested on: Red blood cells
# assay_method_text: Anti-sludge in vitro, "preventive" treatment (protamine sulfate agglomeration of red blood cells)
# Type: cell-based, rats
# experimental_setup: 50 μg per tube, controls 17 or 16
Report the value in % with no unit label.

Data request: Supply recorded percent agglomerates formed by 2 RBC for CC(=O)N1CC(c2ccccc2)c2ccsc2C1=O (stereo not drawn) here.
Data returned: 28

Data request: Supply recorded percent agglomerates formed by 2 RBC for CC(=O)N1CCc2ccsc2C1=O here.
Data returned: 22

Data request: Supply recorded percent agglomerates formed by 2 RBC for O=C(c1ccccc1Cl)N1CCc2sccc2C1=O here.
Data returned: 25

Data request: Supply recorded percent agglomerates formed by 2 RBC for O=C1c2sccc2CCN1Cc1ccccc1Cl here.
Data returned: 22

Data request: Supply recorded percent agglomerates formed by 2 RBC for O=C1c2ccsc2CCN1Cc1ccc(Cl)cc1 here.
Data returned: 25

Data request: Supply recorded percent agglomerates formed by 2 RBC for O=C1NCCc2ccsc21 here.
Data returned: 20

====

# Test system: carrageenin-induced edema
# assay_method_text: Localized carrageenin-induced edema method
# Format: in vivo
# experimental_setup: rats, 100 mg/kg oral one hour before, with, and 1 and 2.5 hours after carrageenin; after 2 hours
property_label: Percent anti-inflammatory activity after 2 hours (%)
Report the value in % with no unit label.

CC(=O)N1CCc2sccc2C1=O = 51

Data request: Supply recorded Percent anti-inflammatory activity after 2 hours for CC(=O)N1CCc2ccsc2C1=O here.
Data returned: 50

Data request: Supply recorded Percent anti-inflammatory activity after 2 hours for CC(=O)N1CC(c2ccccc2)c2ccsc2C1=O (stereo not shown) here.
Data returned: 49

Data request: Supply recorded Percent anti-inflammatory activity after 2 hours for O=C1NCCc2ccsc21 here.
Data returned: 54

Data request: Supply recorded Percent anti-inflammatory activity after 2 hours for O=C1NCCc2sccc21 here.
Data returned: 55

Data request: Supply recorded Percent anti-inflammatory activity after 2 hours for O=C1c2ccsc2CCN1Cc1ccccc1 here.
Data returned: 47

Data request: Supply recorded Percent anti-inflammatory activity after 2 hours for COc1cc(COC(=O)C2Cc3sccc3C(=O)N2Cc2cc(OC)c(OC)c(OC)c2)cc(OC)c1OC (stereo not shown) here.
Data returned: 52
